Numbers sourced from ChEMBL document CHEMBL4689842.

# Test system: HEK-293T
# assay.info: Multiplex assay against HEK293T
# Assay type: toxicity, cell-based
# run.parameters: human, 24 h, 1 µM, compound concentration 1 uM, replicate 2
Here, each record is paired with measured Population Hoechst High Intensity Objects (%) data.
property.name: Population Hoechst High Intensity Objects (%)

compound	quantitative.readout
CNc1cc(Oc2cc(C(=O)Nc3cc(N4CCN(C)CC4)cc(C(F)(F)F)c3)ccc2C)ncn1	5
Cc1cn(-c2cc(NC(=O)c3ccc(C)c(Nc4nccc(-c5cccnc5)n4)c3)cc(C(F)(F)F)c2)cn1	4
CCCS(=O)(=O)Nc1ccc(F)c(C(=O)c2c[nH]c3ncc(Cl)cc23)c1F	5
COc1ccc(-c2ccc3c(N4CCOCC4)nc(N4C[C@@H](C)O[C@@H](C)C4)nc3n2)cc1CO	4
Cc1ccc2nc(NCCN)c3ncc(C)n3c2c1.O=C(O)C(F)(F)F.O=C(O)C(F)(F)F	3
C=C1/C(=C\C=C2/CCC[C@]3(C)[C@@H]([C@H](C)/C=C/[C@H](C)C(C)C)CC[C@@H]23)C[C@@H](O)C[C@@H]1O	3
CCNc1cc(N[C@H]2CC[C@H](O)CC2)nc(Nc2ccc3c(ccn3Cc3ccccc3)c2)n1	2
Cl.O=c1c2cccn2c2ccccc2n1CCCN1CCC(c2ccc(Cl)cc2)CC1	4
CCOc1cc(C(=O)N2CCC(N3CCN(C)CC3)CC2)ccc1Nc1ncc2c(n1)N(C1CCCC1)c1ccccc1C(=O)N2C	3
CCN1CCN(c2ccc(Nc3cc(N(C)C(=O)Nc4c(Cl)c(OC)cc(OC)c4Cl)ncn3)cc2)CC1	5
O=C1NC(=O)C(c2cnc3ccccn23)=C1c1cn2c3c(cc(F)cc13)CN(C(=O)N1CCCCC1)CC2	6
CCCS(=O)(=O)c1nc(NC2CC2)cc(-c2ccc3c(ccn3C3CC(C)(C)NC(C)(C)C3)c2)n1	7
O=C(Nc1cccnn1)N1CCC(=Cc2cccc(Oc3ccc(C(F)(F)F)cn3)c2)CC1	10
Cl.Oc1ccc2c3c1O[C@H]1c4[nH]c5c(c4C[C@@]4(O)[C@@H](C2)N(CC2CC2)CC[C@]314)C[C@@]1(O)[C@H]2Cc3ccc(O)c4c3[C@@]1(CCN2CC1CC1)[C@H]5O4	4
COc1cc2ncnc(Nc3ccc(F)c(Cl)c3)c2cc1NC(=O)/C=C/CN1CCCCC1 [DACOMITINIB ANHYDROUS]	3

---

Here, each record is paired with measured Growth Rate data.
# System: U2OS
# assay.info: Incucyte cell viability with U2OS; further: filed as whole numbers so only -1 and 0 and 1 occur
# Assay type: toxicity, cell-based
# run.parameters: human, 24 h, 10 µM, compound concentration 10 uM, replicate number 1, timepoint 24 hours
property.name: Growth Rate

> print(dat)
                                    compound  measured.on  property.name  quantitative.readout
 1  CN1CCN(C(=O)C(C)(C)c2ccc(C(=O)Nc3cn4cc(-c5cc(C(C)(C)C)cc(C(C)(C)C)c5)ccc4n3)cc2)CC1         U2OS    Growth Rate                     0
 2  CCC[C@H](Oc1cc(C)c(-n2cc(C(F)(F)F)cn2)c(C)c1)c1ccc(C(=O)NCCC(=O)O)cc1         U2OS    Growth Rate                     1
 3  O=C(Nc1ccc(-n2nc(-c3cccnc3)cc2C(F)(F)F)cn1)c1ccc(-c2ccccc2)c(F)c1         U2OS    Growth Rate                     0
 4  COc1cccc2cc(-c3nc([C@H]4CC[C@H](C(=O)O)CC4)n4ncnc(N)c34)[nH]c12         U2OS    Growth Rate                     0
 5  O=C(Nc1ccc(-c2ccnc(Nc3ccc(N4CCOCC4)cc3)n2)cc1)[C@@H]1CCCN1         U2OS    Growth Rate                     1
 6  CC[C@@H]1CN2C(=O)N(C)c3nc(-c4ccccc4)[nH]c3C2=N1.Cl         U2OS    Growth Rate                     1
 7  O=S(=O)(NC1CCC(c2cc(F)ccc2F)(S(=O)(=O)c2ccc(Cl)cc2)CC1)C(F)(F)F (configuration not stated)         U2OS    Growth Rate                     1
 8  COc1cc(OC)cc(-c2noc(N3CCN(C)C4(CCN(c5ccnc(C)c5)CC4)C3)n2)c1         U2OS    Growth Rate                     0
 9  CCN1CCN(Cc2ccc(Nc3ncc(F)c(-c4cc(F)c5nc(C)n(C(C)C)c5c4)n3)nc2)CC1.CS(=O)(=O)O         U2OS    Growth Rate                     0
10  CC(C)(C)OC(=O)N1CCCC1CNC1CCC(c2cc(F)ccc2F)(S(=O)(=O)c2ccc(Cl)cc2)CC1 (configuration not stated)         U2OS    Growth Rate                     0
11  Cc1c(NC(=O)c2cc(C(N)=O)nc3cc(F)ccc23)c(C(F)(F)F)nn1Cc1ccc(C(C)(C)C)cc1         U2OS    Growth Rate                     1
12  C[C@@H](c1cccc(C#N)c1)n1cc(Cl)cc(C(N)=O)c1=N.Cl         U2OS    Growth Rate                     1
13  CS(=O)(=O)NCC[C@H](NC(=O)c1cncc2c1cnn2-c1ccc(F)cc1)c1ccnc(S(C)(=O)=O)c1         U2OS    Growth Rate                     1
14  Cc1nc(-c2ccc(C(F)(F)F)cc2)sc1COc1ccc([C@H](CC(=O)O)c2ccon2)cc1         U2OS    Growth Rate                     0
15        Cc1ccc2nc(CNCCCOc3ccccc3)cc(O)c2c1         U2OS    Growth Rate                     0
16                    CNC[C@H](O)c1cccc(O)c1         U2OS    Growth Rate                     1
17          CC(C)NC(=O)c1ccc(C#Cc2ccncc2)cn1         U2OS    Growth Rate                     0
